experiment: DRUGMATRIX: Imidazoline I2, Central radioligand binding (ligand: [3H] Idazoxan); format: cell membranes, Rattus norvegicus, Wistar, Cerebral cortex, Membrane; conditions: Not Active = under 50% inhibition at 10 µM
outcome-measure: Ki

{"query-smiles": "CCC[C@@H]1C[C@@H](C(=O)N[C@@H]([C@H]2O[C@H](SC)[C@H](O)[C@@H](O)[C@H]2O)[C@@H](C)O)N(C)C1", "reported-value": "Not Active"}
{"query-smiles": "CC(C)(S)[C@@H](N)C(=O)O", "reported-value": "Not Active"}
{"query-smiles": "CN1[C@@H]2CC[C@H]1C[C@@H](OC(=O)c1c[nH]c3ccccc13)C2", "reported-value": "Not Active"}

The reported measurements were obtained from ChEMBL document CHEMBL1909046.
